Provenance of the data: patent US12152038B2

Please provide measured efflux ratio at 1 h, 10 μM for the entries that follow.
# tested.system: MDR1 (P-glycoprotein) (Homo sapiens, UniProt P08183)
# Construct: host or cells: MDCK (MDR1-MDCK; wild-type MDCK as comparator)
# Sequence (P08183 whole entry): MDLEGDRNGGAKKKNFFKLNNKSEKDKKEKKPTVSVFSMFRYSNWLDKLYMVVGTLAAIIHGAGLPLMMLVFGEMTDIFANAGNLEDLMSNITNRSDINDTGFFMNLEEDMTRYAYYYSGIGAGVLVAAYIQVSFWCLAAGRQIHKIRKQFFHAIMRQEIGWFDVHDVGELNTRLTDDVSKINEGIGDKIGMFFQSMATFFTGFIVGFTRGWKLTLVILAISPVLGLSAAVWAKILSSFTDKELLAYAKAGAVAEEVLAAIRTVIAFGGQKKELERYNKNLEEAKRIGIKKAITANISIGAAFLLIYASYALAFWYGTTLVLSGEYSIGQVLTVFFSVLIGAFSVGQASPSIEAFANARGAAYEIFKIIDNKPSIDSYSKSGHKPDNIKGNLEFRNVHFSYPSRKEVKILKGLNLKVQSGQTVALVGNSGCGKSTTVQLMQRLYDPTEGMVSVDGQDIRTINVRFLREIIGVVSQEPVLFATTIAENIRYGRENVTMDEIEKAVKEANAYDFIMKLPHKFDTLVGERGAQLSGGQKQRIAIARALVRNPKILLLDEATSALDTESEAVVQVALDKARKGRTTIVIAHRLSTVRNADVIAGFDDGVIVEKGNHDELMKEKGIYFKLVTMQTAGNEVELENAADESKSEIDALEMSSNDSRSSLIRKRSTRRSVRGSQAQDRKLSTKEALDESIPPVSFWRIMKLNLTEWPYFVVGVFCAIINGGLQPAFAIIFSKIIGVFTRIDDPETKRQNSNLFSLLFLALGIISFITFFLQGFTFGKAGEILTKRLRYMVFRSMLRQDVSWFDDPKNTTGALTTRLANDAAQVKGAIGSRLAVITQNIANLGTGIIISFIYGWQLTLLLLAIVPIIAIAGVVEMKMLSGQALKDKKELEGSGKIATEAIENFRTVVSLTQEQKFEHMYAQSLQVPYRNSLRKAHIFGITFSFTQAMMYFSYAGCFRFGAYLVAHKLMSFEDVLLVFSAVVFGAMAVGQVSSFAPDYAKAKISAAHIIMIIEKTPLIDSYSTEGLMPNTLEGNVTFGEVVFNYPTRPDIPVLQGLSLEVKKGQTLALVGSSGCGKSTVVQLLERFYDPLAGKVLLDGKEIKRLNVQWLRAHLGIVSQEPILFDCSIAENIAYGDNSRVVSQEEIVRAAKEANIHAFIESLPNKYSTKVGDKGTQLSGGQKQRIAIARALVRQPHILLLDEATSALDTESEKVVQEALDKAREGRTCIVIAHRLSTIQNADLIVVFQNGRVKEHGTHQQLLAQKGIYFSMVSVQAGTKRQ
# experiment.description: MDR1-MDCK permeability and efflux assay (Papp, efflux ratio, effective efflux ratio)
# Type: in vitro ADME
# run.conditions: dog, MDCK-MDR1, pH 7.4, Papp B>A/Papp A>B, MDR1-MDCK cells; read-out: ER MDR1 (Efflux Ratio)

Cc1cncc(N2CC3(CN(C(=O)N4c5ccc(F)cc5OCC4C)C3)C2)n1 (centres unmarked) [20-2] : 1 to 2
Cc1nccc(N2CC3(CN(C(=O)N4c5ccc(Cl)cc5OCC4C)C3)C2)n1 (centres unmarked) : 1 to 2
O=C(N1CC2(C1)CN(c1cnccn1)C2)N1CCOc2cc(Cl)ccc21 : 1 to 2

Parameter requested: efflux ratio at 1 h, 10 μM. Apply to each item below.
1. CC1COc2cc(Cl)ccc2N1C(=O)N1CC2(C1)CN(c1nn(C)c3ncccc13)C2 (single isomer, unassigned)
2. O=C(N1CC2(C1)CN(c1ccc(F)cn1)C2)N1CCOc2cc(Cl)ccc21

< 1
< 1

---

# tested.system: human Arginine Vasopressin Receptor 1a (AVPR1a) (Homo sapiens)
# Construct: expressed in transfected cells; host or cells: CHO (CHO-AVPR1a, kept under G418 selection)
# Sequence (P37288 whole entry): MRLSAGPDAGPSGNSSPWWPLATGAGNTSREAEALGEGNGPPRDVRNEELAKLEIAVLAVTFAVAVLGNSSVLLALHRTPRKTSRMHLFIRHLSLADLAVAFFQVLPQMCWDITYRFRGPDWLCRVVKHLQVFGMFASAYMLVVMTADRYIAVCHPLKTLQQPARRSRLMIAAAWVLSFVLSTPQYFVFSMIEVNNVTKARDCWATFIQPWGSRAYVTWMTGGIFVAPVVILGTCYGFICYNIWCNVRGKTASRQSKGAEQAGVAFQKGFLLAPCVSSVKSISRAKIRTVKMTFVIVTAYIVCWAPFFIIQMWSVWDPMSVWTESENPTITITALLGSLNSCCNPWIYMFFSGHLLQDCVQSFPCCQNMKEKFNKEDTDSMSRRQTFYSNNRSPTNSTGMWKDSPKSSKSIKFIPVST
# experiment.description: Vasopressin V1a receptor antagonist assay (FLIPR calcium, CHO-AVPR1a cells)
# Type: cell-based
# Method: The purpose of this assay was to determine the inhibitory effect of synthesized compounds on the Vasopressin V1a receptor. The assay was performed in Chinese Hamster Ovary (CHO) cells expressing the human Arginine Vasopressin Receptor 1a (AVPR1a). Arginine Vasopressin (AVP) evokes an increase in intracellular calcium in CHO-AVPR1a cells which is measured in a fluorescence assay on the FLIPR^TETRA using calcium sensitive dyes. […]
observable: IC50

Previously resolved entries follow.
O=C(N1CC2(C1)CN(c1cc(C(F)F)ccn1)C2)N1CCOc2cc(Cl)ccc21 : < 100 nM
CN1CCCN(C(=O)N2CC3(C2)CN(c2ccc(F)cn2)C3)c2ccc(F)cc21 : < 100 nM
CC1COc2cc(F)ccc2N1C(=O)N1CC2(C1)CN(c1noc3ccccc13)C2 (single isomer, unassigned) [4-3-A] : 100 to 500 nM
CC1COc2cc(Cl)ccc2N1C(=O)N1CC2(C1)CN(c1cccnc1)C2 (centres unmarked) [20-1] : < 100 nM
O=C(N1CC2(C1)CN(c1ccccn1)C2)N1CCC(O)c2cc(Cl)ccc21 (single isomer, unassigned) [13-2-A] : < 100 nM
O=C(N1CC2(C1)CN(c1cc(F)cc(F)n1)C2)N1CCOc2cc(Cl)ccc21 : < 100 nM
CC1(O)CCN(C(=O)N2CC3(C2)CN(c2ccc(F)cn2)C3)c2ccc(Cl)cc21 (centres unmarked) : < 100 nM
Cc1cnc(N2CC3(CN(C(=O)N4c5ccc(Cl)cc5OCC4C)C3)C2)cn1 (single isomer, unassigned) [20-5-B] : < 100 nM
CC1COc2cc(F)ccc2N1C(=O)N1CC2(C1)CN(c1ncccc1F)C2 (single isomer, unassigned) [1-67-B] : ≥ 1000 nM
O=C(N1CC2(C1)CN(c1ccc(F)cn1)C2)N1CCOc2ccccc21 : 100 to 500 nM

Parameter requested: IC50. Apply to each item below.
1. CC1COc2cc(Cl)ccc2N1C(=O)N1CC2(C1)CN(c1ncc(C3CC3)cn1)C2 (centres unmarked)
2. N#Cc1cccc(N2CC3(CN(C(=O)N4CCOc5cc(Cl)ccc54)C3)C2)n1
3. O=C(N1CC2(C1)CN(c1cnccn1)C2)N1CCOc2cc(Cl)ccc21
4. CCc1ccnc(N2CC3(CN(C(=O)N4c5ccc(Cl)cc5OCC4C)C3)C2)n1 (single isomer, unassigned) [18-5-A]
5. CC1COc2cc(Cl)ccc2N1C(=O)N1CC2(C1)CN(c1ncccc1F)C2 (single isomer, unassigned) [1-57-A]

100 to 500 nM
< 100 nM
< 100 nM
≥ 1000 nM
< 100 nM

Parameter requested: IC50. Apply to each item below.
1. O=C(N1CC2(C1)CN(c1ccc(F)cn1)C2)N1CCOc2c1ccc(F)c2F
2. Cn1nccc1N1CC2(CN(C(=O)N3CCOc4cc(Cl)ccc43)C2)C1

< 100 nM
100 to 500 nM
